Entry source: patent US20080274055A1

# targetOfAssay: T1, carcinoembryonic antigen (CEA) (human, UniProt P06731 35-685)
# T1 sequence (looked up): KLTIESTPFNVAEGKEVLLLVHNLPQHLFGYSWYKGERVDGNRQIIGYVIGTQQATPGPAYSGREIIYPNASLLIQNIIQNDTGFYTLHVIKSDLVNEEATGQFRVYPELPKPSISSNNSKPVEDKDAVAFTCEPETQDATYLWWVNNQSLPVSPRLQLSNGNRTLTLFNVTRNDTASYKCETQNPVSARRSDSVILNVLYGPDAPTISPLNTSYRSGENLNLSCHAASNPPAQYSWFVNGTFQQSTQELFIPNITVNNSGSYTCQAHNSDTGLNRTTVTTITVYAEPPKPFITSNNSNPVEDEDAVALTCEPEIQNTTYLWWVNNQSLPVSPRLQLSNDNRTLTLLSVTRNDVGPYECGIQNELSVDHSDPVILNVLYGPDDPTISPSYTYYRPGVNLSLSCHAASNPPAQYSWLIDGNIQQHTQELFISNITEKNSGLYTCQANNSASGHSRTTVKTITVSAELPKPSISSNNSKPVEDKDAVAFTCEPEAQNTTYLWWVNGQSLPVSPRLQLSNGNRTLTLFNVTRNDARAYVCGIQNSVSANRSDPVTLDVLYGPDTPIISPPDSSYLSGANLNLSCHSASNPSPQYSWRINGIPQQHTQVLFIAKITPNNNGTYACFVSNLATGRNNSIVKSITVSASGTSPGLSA
# test: competition RIA against 125I-mCOL-1 on CEA; modified Scatchard
recordedMetric: Ka (M⁻¹)
Number in M⁻¹, nothing else.

INSERT INTO results (binder, unitabbreviation, resultvalue) VALUES
  ('HuCOL-1AbrCDR framework variant 10 (FRV10) (antibody, V domains shown, also called HuCOL-1FRV10) VH: QVQLVQSGAEVKKPGASVKVSCKASGYNIKDYYMHWVRQRPEQGLEWMGWIDPENGDTEYAQKFQGRVTMTTDTSTSTVYMELSSLRSEDTAVYYCNTRGLSTMITTRWFFDVWGAGTLVTVSS VL: DIVLTQSPASLAVSLGERATINCKSSQSVSASGYSYMHWYQQKPGQPPKLLIYLASNLQSGVPARFSGSGSGTDFTLTISSVQAEDVATYYCQHSRELPTFGGGTKLEIK', 'M⁻¹', '3.04e+08');

// field: Ka; key: HuCOL-1AbrCDR (antibody, V domains shown, also called FRV1; HuCOL-1 24,25,27L/61H) VH: EVQLVQSGAEVVKPGASVKMSCKASGFNIKDYYMHWVKQRPEQGLEWIGWIDPENGDTEYAQKFQGKATMTTDTSTSTAYLELSSLRSEDTAVYYCNTRGLSTMITTRWFFDVWGAGTLVTVSS VL: DIVLTQSPASLAVSLGERATINCKSSQSVSASGYSYMHWYQQKPGQPPKLLIYLASNLQSGVPARFSGSGSGTDFTLTISSVQAEDVATYYCQHSRELPTFGGGTKLEIK ; value = 2.32e+08

// field: Ka; key: HuCOL-1 (antibody, V domains shown, Whole humanized antibody; also called humanized COL-1; ATCC PTA-4661) VH: EVQLVQSGAEVVKPGASVKMSCKASGFNIKDYYMHWVKQAPGQGLEWIGWIDPENGDTEYAPKFQGKATMTTDTSTSTAYLELSSLRSEDTAVYYCNTRGLSTMITTRWFFDVWGAGTLVTVSS VL: DIVLTQSPASLAVSLGERATINCRASKSVSASGYSYMHWYQQKPGQPPKLLIYLASNLQSGVPARFSGSGSGTDFTLTISSVQAEDVATYYCQHSRELPTFGGGTKLEIK ; value = 2.78e+08

// field: Ka; key: HuCOL-1AbrCDR framework variant 7 (FRV7) (antibody, V domains shown, also called HuCOL-1FRV7; FR7) VH: EVQLVQSGAEVVKPGASVKVSCKASGYNIKDYYMHWVRQRPEQGLEWMGWIDPENGDTEYAQKFQGRVTMTTDTSTSTVYMELSSLRSEDTAVYYCNTRGLSTMITTRWFFDVWGAGTLVTVSS VL: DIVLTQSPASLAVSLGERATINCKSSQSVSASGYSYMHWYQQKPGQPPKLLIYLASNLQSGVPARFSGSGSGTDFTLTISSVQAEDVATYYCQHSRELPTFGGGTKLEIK ; value = 3.07e+08
